Please provide measured IC50 for the entries that follow.
Molecular target: Voltage-gated N-type calcium channel alpha-1B subunit/Amyloid beta A4 precursor protein-binding family A member 1 (Homo sapiens, UniProt Q00975+Q02410)
Sequence (Q00975 whole entry): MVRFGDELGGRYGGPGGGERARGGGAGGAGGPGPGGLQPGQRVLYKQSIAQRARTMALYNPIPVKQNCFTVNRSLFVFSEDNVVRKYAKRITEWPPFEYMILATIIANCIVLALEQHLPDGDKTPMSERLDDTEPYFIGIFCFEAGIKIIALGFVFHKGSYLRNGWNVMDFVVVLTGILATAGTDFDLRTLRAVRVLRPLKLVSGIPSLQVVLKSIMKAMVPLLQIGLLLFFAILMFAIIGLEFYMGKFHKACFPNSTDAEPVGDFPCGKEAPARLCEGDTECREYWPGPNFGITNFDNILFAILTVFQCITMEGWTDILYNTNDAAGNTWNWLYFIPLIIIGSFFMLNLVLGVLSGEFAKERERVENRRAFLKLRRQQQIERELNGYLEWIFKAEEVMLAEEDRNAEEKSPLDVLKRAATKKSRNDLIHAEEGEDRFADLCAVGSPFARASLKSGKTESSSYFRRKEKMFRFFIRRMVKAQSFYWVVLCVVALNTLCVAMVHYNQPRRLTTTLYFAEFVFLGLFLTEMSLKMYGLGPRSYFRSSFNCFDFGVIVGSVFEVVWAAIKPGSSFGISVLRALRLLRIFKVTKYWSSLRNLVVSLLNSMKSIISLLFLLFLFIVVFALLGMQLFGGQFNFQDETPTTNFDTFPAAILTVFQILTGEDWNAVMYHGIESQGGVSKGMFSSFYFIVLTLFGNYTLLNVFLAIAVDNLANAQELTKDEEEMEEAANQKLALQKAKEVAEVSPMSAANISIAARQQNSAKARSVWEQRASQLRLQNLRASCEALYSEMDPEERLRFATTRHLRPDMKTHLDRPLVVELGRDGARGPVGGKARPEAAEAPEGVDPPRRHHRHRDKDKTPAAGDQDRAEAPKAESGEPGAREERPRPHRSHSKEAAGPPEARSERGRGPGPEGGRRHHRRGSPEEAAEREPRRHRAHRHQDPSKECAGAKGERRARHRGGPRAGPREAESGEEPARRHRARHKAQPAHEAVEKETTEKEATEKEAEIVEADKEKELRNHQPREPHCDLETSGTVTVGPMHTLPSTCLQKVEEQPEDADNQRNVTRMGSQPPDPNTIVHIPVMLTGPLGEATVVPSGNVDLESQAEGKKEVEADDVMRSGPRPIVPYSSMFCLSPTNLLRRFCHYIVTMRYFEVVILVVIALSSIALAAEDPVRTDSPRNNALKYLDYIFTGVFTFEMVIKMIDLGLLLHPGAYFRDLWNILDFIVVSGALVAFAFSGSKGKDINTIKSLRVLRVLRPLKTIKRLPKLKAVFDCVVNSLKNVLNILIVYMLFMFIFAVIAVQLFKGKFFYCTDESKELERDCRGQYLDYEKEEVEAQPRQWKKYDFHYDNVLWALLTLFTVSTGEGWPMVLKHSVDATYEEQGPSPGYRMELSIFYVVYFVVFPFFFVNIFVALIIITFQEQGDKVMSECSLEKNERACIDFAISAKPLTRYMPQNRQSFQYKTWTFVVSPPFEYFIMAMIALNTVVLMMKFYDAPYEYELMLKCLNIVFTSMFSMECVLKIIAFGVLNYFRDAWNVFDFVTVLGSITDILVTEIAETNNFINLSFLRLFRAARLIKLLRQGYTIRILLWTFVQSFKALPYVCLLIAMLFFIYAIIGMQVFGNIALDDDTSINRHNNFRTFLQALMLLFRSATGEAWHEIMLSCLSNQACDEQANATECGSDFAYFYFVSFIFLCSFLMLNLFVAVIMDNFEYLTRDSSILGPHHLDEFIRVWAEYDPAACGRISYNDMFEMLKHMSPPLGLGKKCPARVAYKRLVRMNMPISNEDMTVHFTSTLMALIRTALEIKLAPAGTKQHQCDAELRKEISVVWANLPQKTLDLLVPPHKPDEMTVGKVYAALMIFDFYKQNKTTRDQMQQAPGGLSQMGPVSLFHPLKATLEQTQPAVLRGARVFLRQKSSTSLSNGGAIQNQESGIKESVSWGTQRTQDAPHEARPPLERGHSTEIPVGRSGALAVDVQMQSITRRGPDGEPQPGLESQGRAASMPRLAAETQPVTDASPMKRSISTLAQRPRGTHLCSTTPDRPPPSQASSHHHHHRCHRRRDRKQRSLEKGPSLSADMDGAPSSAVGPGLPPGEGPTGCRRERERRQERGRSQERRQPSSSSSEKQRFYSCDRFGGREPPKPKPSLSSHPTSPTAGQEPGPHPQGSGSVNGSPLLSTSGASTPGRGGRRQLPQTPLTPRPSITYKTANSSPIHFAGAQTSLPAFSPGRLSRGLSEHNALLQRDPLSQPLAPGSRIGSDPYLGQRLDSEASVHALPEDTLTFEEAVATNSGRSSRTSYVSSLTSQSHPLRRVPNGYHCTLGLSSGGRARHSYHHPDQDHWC
Sequence (Q02410 whole entry): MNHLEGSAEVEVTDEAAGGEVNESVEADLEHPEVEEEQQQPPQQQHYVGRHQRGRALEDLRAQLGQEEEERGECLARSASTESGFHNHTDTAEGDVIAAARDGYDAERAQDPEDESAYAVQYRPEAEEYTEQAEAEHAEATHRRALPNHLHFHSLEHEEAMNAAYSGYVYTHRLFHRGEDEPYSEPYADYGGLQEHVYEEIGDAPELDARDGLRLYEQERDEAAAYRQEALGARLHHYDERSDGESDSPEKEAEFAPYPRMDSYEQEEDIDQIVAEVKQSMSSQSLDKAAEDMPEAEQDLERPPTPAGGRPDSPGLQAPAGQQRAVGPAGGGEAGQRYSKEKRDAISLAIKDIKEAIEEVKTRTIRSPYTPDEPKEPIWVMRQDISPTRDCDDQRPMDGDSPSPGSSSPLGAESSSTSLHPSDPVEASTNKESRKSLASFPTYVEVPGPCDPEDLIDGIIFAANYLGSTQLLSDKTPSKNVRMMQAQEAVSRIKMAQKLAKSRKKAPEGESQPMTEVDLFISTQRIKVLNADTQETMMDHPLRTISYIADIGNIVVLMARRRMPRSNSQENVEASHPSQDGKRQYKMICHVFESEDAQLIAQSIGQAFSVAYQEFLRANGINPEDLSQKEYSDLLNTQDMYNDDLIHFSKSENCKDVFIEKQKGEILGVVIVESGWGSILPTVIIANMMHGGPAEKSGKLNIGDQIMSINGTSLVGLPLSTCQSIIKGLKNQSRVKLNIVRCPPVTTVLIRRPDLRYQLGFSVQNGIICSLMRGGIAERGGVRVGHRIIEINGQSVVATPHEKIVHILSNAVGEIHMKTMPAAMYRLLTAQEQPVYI
Assay type: protein assay
Calls of active or inactive are those of the source.

Take a look at these entries with their results.
| molecule | IC50 |
| --- | --- |
| O=C(O)Cc1sc(Nc2ccc(Cl)cc2)nc1-c1cccs1 | 16 µM (active) |
| CCOc1ccc(NC(=O)Cn2sc3nc(C)cc(C)c3c2=O)cc1 | 13.1 µM (active) |
| O=C(NCCCO)Nc1ccc2nc(-c3ccco3)c(-c3ccco3)nc2c1 | 20 µM (active) |

Now look at this one.
Query string: Given CN1CSC2=C(C#N)C(c3cccc(OCc4ccccc4)c3)CC(=O)N2C1 (centres undefined) , state its recorded IC50.
Result string: 7.59 µM (active)

----------
Please provide measured IC50 for the entries that follow.
Biological target: SUMO-activating enzyme (Homo sapiens, UniProt Q9UBT2)
Sequence (Q9UBE0 whole entry): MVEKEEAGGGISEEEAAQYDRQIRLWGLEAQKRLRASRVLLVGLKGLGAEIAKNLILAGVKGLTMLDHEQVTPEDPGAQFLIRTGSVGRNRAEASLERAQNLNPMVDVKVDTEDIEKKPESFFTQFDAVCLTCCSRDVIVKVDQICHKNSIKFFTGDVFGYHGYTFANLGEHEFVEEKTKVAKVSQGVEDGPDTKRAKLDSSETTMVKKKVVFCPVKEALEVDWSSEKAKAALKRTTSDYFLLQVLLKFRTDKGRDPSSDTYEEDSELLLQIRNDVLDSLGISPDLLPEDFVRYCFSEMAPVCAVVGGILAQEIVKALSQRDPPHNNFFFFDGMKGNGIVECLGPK
Sequence (Q9UBT2 whole entry): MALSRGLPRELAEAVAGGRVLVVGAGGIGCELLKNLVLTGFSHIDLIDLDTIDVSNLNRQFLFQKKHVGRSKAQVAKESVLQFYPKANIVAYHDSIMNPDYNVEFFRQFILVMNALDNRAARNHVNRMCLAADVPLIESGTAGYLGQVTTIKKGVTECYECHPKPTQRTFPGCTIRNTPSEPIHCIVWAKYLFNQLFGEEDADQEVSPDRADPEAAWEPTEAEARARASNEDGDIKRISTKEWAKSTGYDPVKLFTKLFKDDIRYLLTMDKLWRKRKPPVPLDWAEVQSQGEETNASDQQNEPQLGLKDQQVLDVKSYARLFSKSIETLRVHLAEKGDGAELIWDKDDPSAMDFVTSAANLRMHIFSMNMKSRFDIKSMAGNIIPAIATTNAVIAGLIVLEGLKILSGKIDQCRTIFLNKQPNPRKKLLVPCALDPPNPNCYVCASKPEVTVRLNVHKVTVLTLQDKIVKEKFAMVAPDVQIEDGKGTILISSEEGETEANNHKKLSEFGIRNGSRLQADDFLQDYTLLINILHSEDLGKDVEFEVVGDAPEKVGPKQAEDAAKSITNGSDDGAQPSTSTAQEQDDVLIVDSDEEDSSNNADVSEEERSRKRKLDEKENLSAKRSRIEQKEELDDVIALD
Assay: blockers of UBC9-mediated SUMO conjugation – biochemical, AlphaScreen, SUMOylation inhibitor project, confirmation (AID 2018)
Type: functional
Calls of active or inactive are those of the source.

| compound | result |
| --- | --- |
| COc1cccc(-c2nc(SCC(=O)Nc3nc(-c4ccccc4)c(C)s3)[nH]c(=O)c2C#N)c1 | 5.37 µM (active) |
| COc1cc2c(cc1OC)-c1cc3ccc4c(c3c[n+]1CC2)OCO4 | 4.17 µM (active) |
| COc1cccc(/C=N\NC(=O)C2=NNC(=O)C2C)c1O (centres undefined) | 5.18 µM (active) |

Query string: Given COc1cc(NC(=O)c2cnc(N)s2)cc(C(=O)Nc2cccc(C(F)(F)F)c2)c1 , state its recorded IC50.
Result string: 10.8 µM (active)

----------
Assay: Trypanosoma cruzi growth suppression in host cells – NIH3T3 host cells, beta-gal luminescence, confirmation (AID 2044);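 further: intracellular parasites grown in NIH/3T3 mouse fibroblasts as host cells; luminescent beta-galactosidase reporter signal from transgenic T. cruzi replicating inside host cells; inhibitors lower the luminescence signal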
Type: functional, cell-based
Active and inactive are the calls of the source.
readoutKind: EC50

| compound | EC50 |
| --- | --- |
| Cc1ccc(-n2c(C)cc(/C=N/NC(N)=S)c2C)cc1 | 315 nM (active) |

Please state, for each entry, its recorded EC50.
1. N#C/C(=C\c1ccc(Sc2ccccc2)o1)c1nc2ccccc2[nH]1
2. Oc1ccccc1/C=N/Nc1cc(N2CCCC2)nc(N2CCCC2)n1
3. COc1ccccc1/C=C/CN1CCCC(CCC(=O)NCc2ccc(F)c(F)c2)C1 (stereo unspecified)
4. O=C(N/N=C/c1ccc([N+](=O)[O-])o1)C1CC1

Result string:
1420 nM (active)
1850 nM (active)
< 100 nM (active)
360 nM (active)

Please state, for each entry, its recorded EC50.
1. Cc1ccc(NS(=O)(=O)c2ccc(NC(=O)c3ccccc3C(=O)O)cc2)c(C)c1
2. COc1ccc(N(C)S(=O)(=O)c2cccc(C(=O)NCC3CCCCC3)c2)cc1
3. COc1ccc(C(=O)/C=C/C(=O)N(CC(=O)NC2CCCCC2)Cc2ccccc2)c(O)c1
4. O=c1c2ccccc2nc(SCCN2CCCCC2)n1CCc1ccccc1
5. CCCOc1ccc(NCC(=O)Nc2ccc(C)cc2C)cc1
6. CN1CCN(CCOc2ccc(Cl)c(Cl)c2)CC1

Result string:
1: > 60000 nM (not active); 2: > 30000 nM (not active); 3: 1640 nM (active); 4: 1570 nM (active); 5: 3070 nM (active); 6: 516 nM (active)
